B1: HDV Ribozyme (parent)
chain: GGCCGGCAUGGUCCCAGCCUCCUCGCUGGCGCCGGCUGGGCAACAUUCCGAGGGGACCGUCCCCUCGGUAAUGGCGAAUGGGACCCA

Variants of: B1
Assay: self-cleavage, relative activity (ratio to wild type); higher = more cleavage; co-transcriptional
Would you please tag the item 1 when its self-cleavage is 0.5 or above, and -1 when it is below?

variant | cat
G55A A56G | 1
U27A G67A | 1
G6U G80C | -1
G52C C66A | 1
C33G G52C | -1
C18A G55U | -1
G25C A77G | -1
C26U C63G | 1
G50A G59C | 1
G34C C86A | -1

Values were extracted from the RNAGym collection of RNA variant scans (doi:10.7554/elife.80360).
